For each entry below, report its GI50 value.
Test system: RPMI-8226
Assay: NCI tumour cell line growth inhibition, 48 h
The source made the active and inactive calls. Rule as the data show it: active = GI50 up to about 1.1 µM and inactive = higher.

## Input Please report GI50 with RPMI-8226 for item Cn1c(CCC#N)nc2ccc(Br)cc2c1=O .
## Output > 100 µM (inactive)

## Input Please report GI50 with RPMI-8226 for item Cc1cccc2nc3cccc(C(=O)NCCC[N+](C)(CCCNC(=O)c4cccc5nc6cccc(C)c6nc45)Cc4ccc([N+](=O)[O-])n4C)c3nc12 .
## Output 1.33 µM (inactive)

## Input Please report GI50 with RPMI-8226 for item C/C(=C\c1ccc(Cl)cc1)C(C)(C)C(=O)O .
## Output > 100 µM (inactive)

## Input Please report GI50 with RPMI-8226 for item Oc1ccc(/N=N/c2ccc(Cl)cc2)cc1 .
## Output 24.2 µM (inactive)

## Input Please report GI50 with RPMI-8226 for item CCCNCc1nc2ccc(Br)cc2c(=O)n1CCC .
## Output 3.67 µM (inactive)

## Input Please report GI50 with RPMI-8226 for item O/N=C(\c1nc2ccc(Cl)cc2nc1O)C(O)c1ccc(Cl)cc1Cl (configuration not stated) .
## Output > 100 µM (inactive)

## Input Please report GI50 with RPMI-8226 for item COC(=O)CN(CC(O)C(NC(C)=O)C(O)C=O)C(=O)OCc1ccccc1 (configuration not stated) .
## Output > 100 µM (inactive)

## Input Please report GI50 with RPMI-8226 for item C(=C/c1nnnn1-c1ccccc1)/Nc1ccccc1 .
## Output 31 µM (inactive)

## Input Please report GI50 with RPMI-8226 for item COc1ccc(N(C(=O)NCCO)c2ccccc2)cc1 .
## Output > 100 µM (inactive)

## Input Please report GI50 with RPMI-8226 for item O=C1CCCCC/C1=C\c1ccccc1 .
## Output 56.4 µM (inactive)

## Input Please report GI50 with RPMI-8226 for item CC(=O)Nc1ccc(C(=O)NN2C(=O)CSC2c2ccc([N+](=O)[O-])cc2)cc1 (configuration not stated) .
## Output > 100 µM (inactive)

## Input Please report GI50 with RPMI-8226 for item COc1cc2c(cc1OC)-c1c(cc(OC)c(OC)c1OC)C2=O .
## Output > 100 µM (inactive)

## Input Please report GI50 with RPMI-8226 for item CN1C[C@H]2[C@@H](C1=O)[C@H](c1ccccc1)ON2C .
## Output > 100 µM (inactive)

## Input Please report GI50 with RPMI-8226 for item O=c1cccccc1NCCCNc1cccccc1=O .
## Output > 100 µM (inactive)

## Input Please report GI50 with RPMI-8226 for item CCCCC(C(=O)CCC(=O)Nc1ccc(Cl)cc1)C(=O)C(C)C (configuration not stated) .
## Output > 100 µM (inactive)

## Input Please report GI50 with RPMI-8226 for item C=CCCCC1(C)CCNC1=S (configuration not stated) .
## Output > 100 µM (inactive)

## Input Please report GI50 with RPMI-8226 for item COc1ccccc1NC(=O)O/N=C(/Cl)C(C)C .
## Output 2.1 µM (inactive)

## Input Please report GI50 with RPMI-8226 for item CC(C)(C)C1CCP(=O)(c2ccccc2)CC1 (configuration not stated) .
## Output > 100 µM (inactive)

## Input Please report GI50 with RPMI-8226 for item CCC(=O)N1C(=O)OCC1C(C)C (configuration not stated) .
## Output > 100 µM (inactive)

## Input Please report GI50 with RPMI-8226 for item COC(=O)c1c(C)cccc1/C=C1\Cc2ccc(C)c(C)c2C1=O .
## Output 56.2 µM (inactive)

## Input Please report GI50 with RPMI-8226 for item CC1(C)COC(C2(C)C(=O)C=C(c3ccccc3)c3ccccc32)=N1 (configuration not stated) .
## Output 34.9 µM (inactive)

## Input Please report GI50 with RPMI-8226 for item COC(=O)c1c(OC)cccc1C(=O)O .
## Output > 100 µM (inactive)
